biological target: rat kappa-opioid receptor (Rattus norvegicus, UniProt P34975); assay: [3H]diprenorphine binding on transiently transfected HEK-293 cells, kappa; conditions: [3H]diprenorphine, HEK-293 cells, rat kappa receptor; read-out: Ki κ
Sequence (P34975 whole entry): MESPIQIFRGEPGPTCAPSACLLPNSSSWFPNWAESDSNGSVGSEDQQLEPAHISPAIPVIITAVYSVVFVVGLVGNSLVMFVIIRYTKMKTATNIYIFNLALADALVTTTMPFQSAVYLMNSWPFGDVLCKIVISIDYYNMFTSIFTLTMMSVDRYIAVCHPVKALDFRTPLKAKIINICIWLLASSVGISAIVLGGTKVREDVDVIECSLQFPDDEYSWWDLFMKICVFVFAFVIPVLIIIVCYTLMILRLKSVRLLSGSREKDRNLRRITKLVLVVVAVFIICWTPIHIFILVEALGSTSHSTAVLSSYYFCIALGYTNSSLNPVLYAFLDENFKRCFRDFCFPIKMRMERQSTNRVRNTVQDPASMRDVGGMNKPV
assay metric: pKi
// pKi is dimensionless: -log10 of concentration (M)

Consider the worked cases shown below.
{"molecule": "N=C(N)Nc1ccc2c3c([nH]c2c1)[C@@H]1Oc2c(O)ccc4c2[C@@]12CCN(CC1CC1)[C@H](C4)[C@]2(O)C3", "pKi": 8.94}
{"molecule": "N=C(N)Nc1ccc2[nH]c3c(c2c1)C[C@@]1(O)[C@H]2Cc4ccc(O)c5c4[C@@]1(CCN2CC1CC1)[C@H]3O5 [Compound 3, reference compound]", "pKi": 9.85}

Lab note: next molecule to report on.
Query: Which pKi reading was recorded for the molecule N=C(N)Nc1cccc2c3c([nH]c12)[C@@H]1Oc2c(O)ccc4c2[C@@]12CCN(CC1CC1)[C@H](C4)[C@]2(O)C3 ?
Reply: 7.16

These data points were gathered from patent US7232829B2.
